# Read-out: Glyceraldehyde-3-phosphate dehydrogenase (Homo sapiens) (UniProt P04406)
# Sequence (P04406 whole entry, looked up): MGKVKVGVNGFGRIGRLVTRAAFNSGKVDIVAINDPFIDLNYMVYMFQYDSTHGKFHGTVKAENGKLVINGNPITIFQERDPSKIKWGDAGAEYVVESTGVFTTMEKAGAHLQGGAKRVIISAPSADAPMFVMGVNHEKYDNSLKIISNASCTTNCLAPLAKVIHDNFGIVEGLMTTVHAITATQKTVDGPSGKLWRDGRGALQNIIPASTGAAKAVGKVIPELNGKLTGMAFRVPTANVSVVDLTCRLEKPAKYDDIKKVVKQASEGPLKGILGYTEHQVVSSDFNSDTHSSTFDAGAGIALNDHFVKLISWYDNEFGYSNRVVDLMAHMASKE
# method.summary: CLD_GAPDH_48hr: CellzDirect (CLD) Gene Expression Assay for Baseline Control (Glyceraldehyde 3-phosphate dehydrogenase) at 48 hours (AID 2283706);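 note: active means higher GAPDH mRNA than DMSO vehicle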
Results filed as inconclusive are left out. Active and inactive are the calls of the source. Rule for the calls: active = hit-call score of the fitted dose curve at least 0.9, where 1 is the maximum; inconclusive = response in the unintended direction; inactive = score below 0.9.
quantity: outcome

In [3]: df
Out[3]:
                                    compound  quantity       val
 0                   CCOc1nc(C(Cl)(Cl)Cl)ns1   outcome  inactive
 1  CC(C)C1(C)N=C(c2ncccc2C(=O)O)NC1=O (stereo not drawn)   outcome  inactive
 2                Nc1cnn(-c2ccccc2)c(=O)c1Cl   outcome  inactive
 3  CC(C)=CC1C(C(=O)OCc2coc(Cc3ccccc3)c2)C1(C)C (stereo not drawn)   outcome  inactive
 4      Cc1ccc(N=CN(C)C=Nc2ccc(C)cc2C)c(C)c1   outcome  inactive
 5              CNC(=O)N(C)c1nnc(C(C)(C)C)s1   outcome  inactive
 6          CCOP(=O)(OCC)Oc1nc(Cl)c(Cl)cc1Cl   outcome  inactive
 7            Cc1nc(N(C)C)nc(OC(=O)N(C)C)c1C   outcome  inactive
 8                                    CN=C=S   outcome  inactive
 9              COC(=O)NS(=O)(=O)c1ccc(N)cc1   outcome  inactive
10  CCCC(=NOCC)C1=C(O)CC(CC(C)SCC)CC1=O (stereo not drawn)   outcome  inactive
11  COCc1cnc(C2=NC(C)(C(C)C)C(=O)N2)c(C(=O)O)c1 (stereo not drawn)   outcome  inactive
12  CCCN(CC)CC1COC2(CCC(C(C)(C)C)CC2)O1 (stereo not drawn)   outcome  inactive

* * *

# Read-out: Interleukin-1 alpha (IL1a), IL1A (gene 3552)
# method.summary: BSK_LPS_IL1a: BioMAP Diversity Plus: LPS Assay for Interleukin-1 alpha (IL1a) Biomarker Activity (AID 2283080)
# test.context: primary human HUVEC with PBMC; actives raise or lower the signal
Activity calls are given as the source filed them. How the source made its calls: active means hit-call score of the fitted dose curve at least 0.9, where 1 is the maximum; inactive means score below 0.9.
Possible outcomes: active, inactive

                                    compound  class_label
 0              O=C(O)c1c(Cl)ccc2cc(Cl)cnc12     inactive
 1  CC(C)(C)C(=O)C(Oc1ccc(Cl)cc1)n1cncn1 (stereo not drawn)     inactive
 2                Nc1cnn(-c2ccccc2)c(=O)c1Cl     inactive
 3                      COc1cc(Cl)c(OC)cc1Cl     inactive
 4                 N#CN=C1SCCN1Cc1ccc(Cl)nc1     inactive
 5  CS(=O)(=O)c1cc(C(F)(F)F)ccc1C(=O)c1cnoc1C1CC1     inactive
 6    CC(C)Oc1cccc(NC(=O)c2ccccc2C(F)(F)F)c1     inactive
 7  COCc1cnc(C2=NC(C)(C(C)C)C(=O)N2)c(C(=O)O)c1 (stereo not drawn)     inactive
 8                   Cc1cc(C)nc(Nc2ccccc2)n1     inactive
 9                         CCSC(=O)N1CCCCCC1     inactive
10             CC(C)N1C(=O)c2ccccc2NS1(=O)=O     inactive
11  CCOc1cc(C(C)(C)C)ccc1C1COC(c2c(F)cccc2F)=N1 (stereo not drawn)       active
12          CCN(CC)c1nc(C)cc(OP(=S)(OC)OC)n1     inactive

* * *

# method.summary: BSK_BE3C_SRB: Viability Assessment in the BioMAP Diversity Plus: BE3C Assay (AID 2283028)
# test.context: primary human bronchial epithelial cells
Activity calls are given as the source filed them. The calls were made as follows: active = hit-call score of the fitted dose curve at least 0.9, where 1 is the maximum; inactive = score below 0.9.
Possible outcomes: active, inactive

>>> print(df.to_string())
                                    compound  class_label
 0                Nc1cnn(-c2ccccc2)c(=O)c1Cl     inactive
 1  COCC(=O)N(c1c(C)cccc1C)C(C)C(=O)OC (stereo not drawn)     inactive
 2                   Cc1cc(C)nc(Nc2ccccc2)n1     inactive
 3               Nc1c(Cl)c(Cl)nc(C(=O)O)c1Cl     inactive
 4  CC1(C)C(C(=O)OC(C#N)c2cccc(Oc3ccccc3)c2)C1(C)C (stereo not drawn)       active
 5    CC(C)Oc1cccc(NC(=O)c2ccccc2C(F)(F)F)c1     inactive
 6  CC(C)=CC1C(C(=O)OCc2coc(Cc3ccccc3)c2)C1(C)C (stereo not drawn)       active
 7  CCCCC(O)(Cn1cncn1)c1ccc(Cl)cc1Cl (stereo not drawn)     inactive
 8  Cc1cnc(C2=NC(C)(C(C)C)C(=O)N2)c(C(=O)O)c1 (stereo not drawn)     inactive
 9  CCOc1cc(C(C)(C)C)ccc1C1COC(c2c(F)cccc2F)=N1 (stereo not drawn)       active
10                      COc1cc(Cl)c(OC)cc1Cl     inactive
11                   CCOc1nc(C(Cl)(Cl)Cl)ns1     inactive
12  CCCN(CC)CC1COC2(CCC(C(C)(C)C)CC2)O1 (stereo not drawn)     inactive

* * *

# method.summary: ATG_CRE_CIS: Attagene CIS-FACTORIAL HepG2 Assay for human cAMP Responsive Element (CRE) binding protein 3 (AID 2282926)
# test.context: HepG2 CRE cis-reporter, Attagene multiplexed mRNA; actives raise or lower the signal
# Description: ATG_CIS is a cell-based, multiplexed-readout assay that uses HepG2, a human liver cell line, with measurements taken at 24 hours after chemical dosing in a 24-well plate.ATG_CRE_CIS is one of 52 assay component(s) measured or calculated from the ATG_CIS assay. […] This assay endpoint, ATG_CRE_CIS, was analyzed with bidirectional fitting relative to DMSO as the negative control and baseline of activity. […]
The source made the active and inactive calls. Rule for the calls: active = hit-call score of the fitted dose curve at least 0.9, where 1 is the maximum; inactive = score below 0.9.
Possible outcomes: active, inactive

>>> print(df.to_string())
                                smiles_text  class_label
0                      COc1cc(Cl)c(OC)cc1Cl     inactive
1  COC(=O)N(C(=O)N1CO[C@@]2(C(=O)OC)Cc3cc(Cl)ccc3C2=N1)c1ccc(OC(F)(F)F)cc1       active
2              O=c1n(Cl)c(=O)n(Cl)c(=O)n1Cl     inactive
3  CO/N=C(/C1=NOCCO1)c1ccccc1Oc1ncnc(Oc2ccccc2Cl)c1F       active
4         N#Cc1c[nH]cc1-c1cccc2c1OC(F)(F)O2       active
5                                    CN=C=S       active

* * *

# Read-out: Lipoprotein lipase (LPL), LPL (gene 4023)
# method.summary: LTEA_HepaRG_LPL: Life Technologies and Expression Analysis (LTEA) Assay for Lipoprotein lipase (LPL) using HepaRG (AID 2283515)
# test.context: mRNA level, 48 h; actives raise or lower the signal
Calls of active or inactive are those of the source. Rule for the calls: active = hit-call score of the fitted dose curve at least 0.9, where 1 is the maximum; inactive = score below 0.9.
quantity: AC50

                                    molecule  quantity               val
 0  OC(c1ccc(Cl)cc1)(c1ccc(Cl)cc1)C(Cl)(Cl)Cl      AC50          inactive
 1             CC(C)N1C(=O)c2ccccc2NS1(=O)=O      AC50          inactive
 2              CNC(=O)N(C)c1nnc(C(C)(C)C)s1      AC50          inactive
 3                CC1(C)CON(Cc2ccccc2Cl)C1=O      AC50          inactive
 4  CSC(=O)c1c(C(F)F)nc(C(F)(F)F)c(C(=O)SC)c1CC(C)C      AC50          inactive
 5          CCOP(=S)(OCC)Oc1nc(Cl)n(C(C)C)n1      AC50  64.7 µM (active)
 6  CC1(C)C(C=C(Cl)Cl)C1C(=O)OC(C#N)c1cccc(Oc2ccccc2)c1 (configuration not stated)      AC50          inactive
 7  CS(=O)(=O)c1cc(C(F)(F)F)ccc1C(=O)c1cnoc1C1CC1      AC50          inactive
 8  C=C(C)CN(CC)c1c([N+](=O)[O-])cc(C(F)(F)F)cc1[N+](=O)[O-]      AC50          inactive
 9     COP(=S)(OC)Oc1ccc([N+](=O)[O-])c(C)c1      AC50          inactive
10          CCN(CC)c1nc(C)cc(OP(=S)(OC)OC)n1      AC50          inactive
11                   CCOc1nc(C(Cl)(Cl)Cl)ns1      AC50  1.06 µM (active)

// data source = PubChem BioAssay (EPA / NIEHS)
